Overview of recorded z-score for various molecules
# method.summary: A549 lung cancer cell viability effects, profiling panel, resazurin fluorescence, 24 h, PK04 Diversity Set (AID 1171); also: test concentration not given here
# study.conditions: higher = more signal, called active from +8 up or from −8 down

{"molecule": "C=C(/C(=C/C[C@@H](OC(=O)c1ccncc1)c1ccc(OCCO)cc1)c1cc(C(=O)OC)ccc1OC)C(C)C", "z-score": 1.4}
{"molecule": "Cc1ccc(F)cc1S(=O)(=O)N[C@@H]1CCN(Cc2ccc(OC(C)C)cc2)C1", "z-score": -0.26}
{"molecule": "CC1CC/C=C\\[C@H]2OC34C=CCN(c5ccc6ccccc6c5)C(=O)[C@H]3N(C(CO)C(C)C)C(=O)[C@@H]4C2C(=O)O1 (some centres not stated)", "z-score": -0.294}
{"molecule": "C=CCOC(=O)[C@@H]1[C@H]2C(=O)O[C@H](c3ccccc3)[C@H](c3ccccc3)N2[C@H](c2ccc(OCCOC(=O)[C@H]3C[C@H]4C(=O)N[C@@H](CC(C)C)C(=O)N4[C@H]3c3ccc(O)cc3)cc2)[C@@]12C(=O)Nc1ccc(I)cc12", "z-score": -0.0756}
{"molecule": "CC[C@@H]1[C@H]2C3C(=O)N(CC)C(=O)C3CC(=O)[C@H]2[C@H](c2ccc(C)cc2)N1S(=O)(=O)c1ccc(C)cc1 (some centres not stated)", "z-score": -0.0875}
{"molecule": "COC(=O)[C@@]1(Cc2ccc(OC)cc2)[C@H]2c3cc(C(=O)N(C)C)n(Cc4nc5ccccc5[nH]4)c3C[C@H]2CN1C(=O)c1ccccc1", "z-score": -0.88}
{"molecule": "COc1ccc([Si](C)(C)[C@@H]2[C@@H](CC(=O)N3CCC[C@H]3CO)O[C@]3(C(=O)N(Cc4ccc(N5C(=O)c6cccc7cccc5c67)cc4)c4ccccc43)[C@H]2C)cc1", "z-score": -3.19}
{"molecule": "COc1ccc(NC(=O)O[C@H]2[C@H](OC(=O)Nc3ccc4c(c3)OCO4)[C@@H](OC(=O)Nc3ccc4c(c3)OCO4)[C@@H](OC)O[C@@H]2CO)cc1", "z-score": 0.441}
{"molecule": "C=CCOC(=O)[C@@H]1[C@H]2C(=O)O[C@H](c3ccccc3)[C@H](c3ccccc3)N2[C@H](c2ccc(OCCOC(=O)[C@H]3C[C@H]4C(=O)N[C@@H](CCCCN(C)C)C(=O)N4[C@H]3c3cccc(OCCO)c3)cc2)[C@@]12C(=O)Nc1ccc(I)cc12", "z-score": -0.299}
{"molecule": "CN1C(=O)C2C=CC(C(O)Cc3ccccc3)N(N(c3ccccc3)c3ccccc3)C2C1=O (configuration not stated)", "z-score": -0.69}
{"molecule": "NC(=O)NCC#Cc1ccc2c(c1)[C@]1(C(=O)N2)[C@H](c2ccc(O)cc2)N2[C@H](c3ccccc3)[C@H](c3ccccc3)OC(=O)[C@H]2[C@@H]1C(=O)Nc1nc2ccccc2s1", "z-score": 0.754}
{"molecule": "CCCCC(CC)C(O)C1C=CC2C(=O)N(c3ccccc3)C(=O)C2N1Nc1ccc([N+](=O)[O-])cc1 (configuration not stated)", "z-score": -0.451}
{"molecule": "CCOC(=O)C1=CC[C@@H](c2ccc([N+](=O)[O-])cc2)N(S(=O)(=O)c2ccc(C)cc2)[C@H]1c1ccccc1", "z-score": 0.807}
{"molecule": "COC(=O)[C@@]1(Cc2ccc(F)cc2)[C@H]2c3cc(C(=O)N4CCCC4)n(CCF)c3C[C@H]2CN1C(=O)c1ccccc1", "z-score": 0.763}
{"molecule": "CC(=O)n1cc(C(O)C2C=CC3C(=O)N(c4ccccc4)C(=O)C3N2Nc2ccccc2)c2ccccc21 (configuration not stated)", "z-score": -1.05}
{"molecule": "C[C@H]1ON(c2ccc(C(=O)OC(C)(C)C)cc2)[C@@H](c2ccc(O)cc2)[C@@H]1C(=O)N1C(=O)OC[C@@H]1c1ccccc1", "z-score": -0.0657}
{"molecule": "CCCCN1CC=CC23O[C@@H]4C=CCOC(=O)[C@@H]4[C@H]2C(=O)N(C(C)CO)[C@@H]3C1=O (some centres not stated)", "z-score": -0.384}
{"molecule": "C=CC[C@]12N=C(c3ccc(OCCCO)cc3)O[C@H]1c1ccccc1N(C)C2=O", "z-score": -1.12}
{"molecule": "CCCC[C@@H]1C[C@H]1[C@@H](NC(=O)c1ccccc1)c1ccc(Cl)cc1", "z-score": 2.09}
{"molecule": "CC(C)C(CO)N1C(=O)[C@]2(C)C3C(=O)OCCC/C=C\\[C@H]3OC23C=CCN(c2ccc(Cl)cc2)C(=O)[C@@H]13 (some centres not stated)", "z-score": -0.503}
{"molecule": "C=CCN1Cc2ccccc2C[C@@]2(N=C(c3ccc(OCCCO)cc3)O[C@H]2c2ccccc2)C1=O", "z-score": -3.12}
{"molecule": "CCOC(=O)[C@H]1C/C=C/C[C@H](C(=O)OCC)C(=O)O[C@H]2[C@@H](OC)O[C@H](CO)[C@@H](OC(=O)Nc3ccc(OC)cc3)[C@@H]2OC1=O", "z-score": -1.29}
{"molecule": "CC=CC(O)C1C=CC2C(=O)N(C)C(=O)C2N1Nc1ccc([N+](=O)[O-])cc1[N+](=O)[O-] (configuration not stated)", "z-score": -0.574}
{"molecule": "O=C1O[C@@H](c2ccccc2)[C@@H](c2ccccc2)N2[C@@H](c3ccc(O)cc3)[C@]3(C(=O)Nc4ccc(C#CC5=CCCCC5)cc43)[C@@H](C(=O)N3CCN(c4ncccn4)CC3)[C@H]12", "z-score": 0.785}
{"molecule": "CC(C)N1CC=CC23O[C@@H]4C=CCCOC(=O)C4[C@H]2C(=O)N(CCO)[C@@H]3C1=O (some centres not stated)", "z-score": 1.06}
{"molecule": "O=C1c2ccccc2[C@](Cc2ccccc2I)(C(=O)NCCN2CCOCC2)[C@H](c2ccc(CO)cc2)N1Cc1ccccc1", "z-score": 0.0188}
{"molecule": "[N-]=[N+]=NCc1ccccc1[C@H]1OC(c2ccc(OCCCO)cc2)=N[C@@]1(CCS(=O)(=O)c1ccccc1)C(N)=O", "z-score": 0.547}
